Listed binders paired with reported Reduction in Signal from Heparin at 300 sec
TEST TARGET: T1, recombinant human GREM1 (hGREM1-His; C-terminal 10His tagged, R&D, #5190-GR) (human, UniProt O60565 25-184)
T1 construct: range 25-184; also called recombinant human GREM1 with a C-terminal decahistidine tag
T1 sequence: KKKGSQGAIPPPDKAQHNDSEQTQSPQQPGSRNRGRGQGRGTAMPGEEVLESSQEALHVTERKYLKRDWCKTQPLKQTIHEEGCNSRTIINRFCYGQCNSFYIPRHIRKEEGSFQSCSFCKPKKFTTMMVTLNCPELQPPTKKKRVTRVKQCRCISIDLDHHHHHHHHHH
PROCEDURE TEXT: BLI Octet, mAb captured, 100 nM GREM1 without vs with 5 uM heparin;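 also: octet Red96 biolayer interferometry at 25 °C, antibodies captured on anti-human IgG Fc biosensors, association of GREM1 measured with versus without heparin in HEPES-buffered saline, pH 7.4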
MEASURED PARAMETER: Reduction in Signal from Heparin at 300 sec

# BINDER, RESULT
data = [
    ("H4H6243P (antibody, human IgG4, V domains shown, H4H prefix = human IgG4 Fc) VH: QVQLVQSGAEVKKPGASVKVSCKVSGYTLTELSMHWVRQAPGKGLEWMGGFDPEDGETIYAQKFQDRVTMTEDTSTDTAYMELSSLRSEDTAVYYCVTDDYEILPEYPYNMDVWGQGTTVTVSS VL: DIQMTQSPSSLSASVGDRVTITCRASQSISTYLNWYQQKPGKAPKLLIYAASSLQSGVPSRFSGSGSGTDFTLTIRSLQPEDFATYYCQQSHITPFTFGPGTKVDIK", "0.26 nm"),
    ("H4H6269P (antibody, human IgG4, V domains shown, H4H prefix = human IgG4 Fc) VH: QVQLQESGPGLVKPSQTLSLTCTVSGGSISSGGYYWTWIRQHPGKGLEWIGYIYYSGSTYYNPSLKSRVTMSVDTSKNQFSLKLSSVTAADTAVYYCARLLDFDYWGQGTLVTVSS VL: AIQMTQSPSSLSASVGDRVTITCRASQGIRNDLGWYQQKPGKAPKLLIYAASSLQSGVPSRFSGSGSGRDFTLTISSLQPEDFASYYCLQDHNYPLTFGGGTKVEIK", "0.08 nm"),
    ("H4H6246P (antibody, human IgG4, V domains shown, H4H prefix = human IgG4 Fc) VH: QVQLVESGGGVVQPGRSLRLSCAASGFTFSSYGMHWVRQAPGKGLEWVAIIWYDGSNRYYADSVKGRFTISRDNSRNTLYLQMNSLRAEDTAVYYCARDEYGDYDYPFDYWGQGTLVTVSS VL: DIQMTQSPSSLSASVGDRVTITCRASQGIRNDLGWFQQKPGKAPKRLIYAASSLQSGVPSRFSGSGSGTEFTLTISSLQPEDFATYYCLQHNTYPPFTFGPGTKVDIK", "0.04 nm"),
    ("H4H6250P (antibody, human IgG4, V domains shown, H4H prefix = human IgG4 Fc) VH: QVQLVESGGGVVQPGRSLRLSCAASGFTFSNYGMHWVRQAPGKGLEWVAVIWYDGSNKYYADSVKGRFTISRDNSRKTLYLQMNSLRAEDTAIYYCTRDDYGDYDYPFDYWGQGTLVTVSS VL: DIQMTQSPSSLSASVGDRVTITCRASQGIRNDLGWYQQKPGKAPKRLIYAASSLQSGVPSRFSGTGSGTEFTLTISSLQPEDFATYYCLQHNSYPPFTFGPGTKVDIK", "0.05 nm"),
    ("H4H6245P (antibody, human IgG4, V domains shown, H4H prefix = human IgG4 Fc) VH: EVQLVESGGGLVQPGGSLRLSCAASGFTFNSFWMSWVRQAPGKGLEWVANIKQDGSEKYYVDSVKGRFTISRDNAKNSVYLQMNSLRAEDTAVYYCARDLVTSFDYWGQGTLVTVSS VL: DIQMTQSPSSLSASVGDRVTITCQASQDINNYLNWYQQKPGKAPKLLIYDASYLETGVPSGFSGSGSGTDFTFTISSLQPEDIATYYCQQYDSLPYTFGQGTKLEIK", "0.19 nm"),
]
